// provenance: PubChem BioAssay (NCI)

Tested on: DU-145 prostate
assay.protocol: NCI-60 one-dose screen, 48 h (100 = growth as untreated, 0 = no growth, -100 = all killed)
condition.notes: 10 µM unless noted
The panel holds about 83,000 compounds, 20% with a hit somewhere; the sample as a whole holds those more often. The source made the active and inactive calls. The calls were made as follows: active = growth percent below 10; inactive = the rest.
reported.metric: growth

Could you tell me which growth is on file for CC(=O)Nc1ccc2nc3ccc(NC(C)=O)cc3[n+](-c3ccccc3)c2c1 ?
117% (inactive)

Try this molecule next: COc1ccc2c(c1)C(C)Cc1c(ncnc1-n1cnc3ccccc31)N2C (centres undefined)
23.7% (inactive)

Try this molecule next: COCCCNc1nc(NC(=O)c2cc(Br)cc(C(F)(F)F)c2)cc(-c2cccnc2)n1
100% (inactive)

Try this molecule next: CN(Cc1cccc(C(F)(F)F)c1)C(=O)[C@@H](CC(=O)N1CCC(N2CCCCC2)CC1)N1C(=O)[C@@H](N2C(=O)OC[C@@H]2c2ccccc2)[C@H]1/C=C/c1ccccc1
103% (inactive)
